These entries and their values trace back to patent US9630977B2.

# System: M. catarrhalis 2524
# Protocol Text: In vitro antibacterial activity test (broth microdilution)
# Assay type: cell-based
# Condition Label: Moraxella catarrhalis; M. catarrhalis 2524; read-out: MIC90
Consider the cut-off 1 mg/L. If the recorded MIC90 is strictly smaller, the label is Fulfilled; if not, the label is Not fulfilled.

Compound: CC(C)(O/N=C(\C(=O)N[C@@H]1C(=O)N2C(C(=O)[O-])=C(C[n+]3cnc(N)c(NC(=O)CCNC(=O)c4ccc(O)c(O)c4)c3)CSC12)c1csc(N)n1)C(=O)O (stereo partly shown)
Experimental System: M. catarrhalis 2524
Category Label: Not fulfilled
//
Compound: CC(C)(O/N=C(\C(=O)N[C@@H]1C(=O)N2C(C(=O)[O-])=C(C[n+]3cnc(NCCNC(=O)c4cc(=O)c(O)cn4O)c(N)c3)CSC12)c1csc(N)n1)C(=O)O (stereo partly shown)
Experimental System: M. catarrhalis 2524
Category Label: Not fulfilled
//
Compound: CC(C)(O/N=C(\C(=O)N[C@@H]1C(=O)N2C(C(=O)[O-])=C(/C=C/C[n+]3cnc(N)c(NC(=O)c4cc(=O)c(O)cn4O)c3)CSC12)c1csc(N)n1)C(=O)O (stereo partly shown)
Experimental System: M. catarrhalis 2524
Category Label: Fulfilled
//
Compound: CC(C)(O/N=C(\C(=O)N[C@@H]1C(=O)N2C(C(=O)[O-])=C(C[n+]3cnc(N)c(NC(=O)CNC(=O)c4ccc(O)c(O)c4)c3)CSC12)c1csc(N)n1)C(=O)O (stereo partly shown)
Experimental System: M. catarrhalis 2524
Category Label: Fulfilled
//
Compound: CC(C)(O/N=C(\C(=O)N[C@@H]1C(=O)N2C(C(=O)[O-])=C(C[n+]3ccccc3)CS[C@H]12)c1csc(N)n1)C(=O)O [Ceftazidime, reference compound]
Experimental System: M. catarrhalis 2524
Category Label: Fulfilled
//
Compound: C[C@H](O/N=C(\C(=O)N[C@@H]1C(=O)N2C(C(=O)[O-])=C(C[n+]3cnc(N)c(NCCNC(=O)c4cc(=O)c(O)c[nH]4)c3)CSC12)c1nc(N)sc1Cl)C(=O)O (stereo partly shown)
Experimental System: M. catarrhalis 2524
Category Label: Fulfilled
//
Compound: CC(C)(O/N=C(\C(=O)N[C@@H]1C(=O)N2C(C(=O)[O-])=C(C[n+]3cnc(N)c(NC(=O)c4cc(=O)c(O)cn4O)c3)CSC12)c1nc(N)sc1Cl)C(=O)O (stereo partly shown)
Experimental System: M. catarrhalis 2524
Category Label: Fulfilled
//
Compound: C[C@H](O/N=C(\C(=O)N[C@@H]1C(=O)N2C(C(=O)[O-])=C(C[n+]3cnc(N)c(NCCNC(=O)c4cc(=O)c(O)cn4O)c3)CSC12)c1nc(N)sc1Cl)C(=O)O (stereo partly shown)
Experimental System: M. catarrhalis 2524
Category Label: Fulfilled

* * *

Attribute: number of clinical isolates that showed the respective MIC value
# System: K. pneumoniae (38 clinical isolates)
# Protocol Text: Antibacterial activity on representative drug-resistance bacteria: number of clinical isolates per MIC value
# Assay type: cell-based
# Condition Label: MIC 8 ug/mL; K. pneumomiae (N = 38)
# Description: The in vitro antibacterial activity was evaluated by measuring MIC90 (ug/mL) of each of the compounds of Examples 1 to 68, which is defined as the lowest concentration of an antibiotic that will inhibit the visible growth of 90% of microorganisms after incubation as compared with a control group to which the antibiotic is not treated. […]
Measured Endpoint: number of clinical isolates that showed the respective MIC value

Molecule: CC(C)(O/N=C(\C(=O)N[C@@H]1C(=O)N2C(C(=O)[O-])=C(/C=C/C[n+]3cnc(N)c(NCCNC(=O)c4cc(=O)c(O)cn4O)c3)CSC12)c1csc(N)n1)C(=O)O (some centres unmarked) [Compound 8]
Recorded Result: 1

Molecule: CC(C)(O/N=C(\C(=O)N[C@@H]1C(=O)N2C(C(=O)[O-])=C(/C=C/C[n+]3cnc(N)c(NCCNC(=O)c4cc(=O)c(O)cn4O)c3)CSC12)c1nc(N)sc1Cl)C(=O)O (some centres unmarked)
Recorded Result: 4

Molecule: C[C@@H](O)[C@H]1C(=O)N2C(C(=O)O)=C(S[C@@H]3CN[C@H](CNS(N)(=O)=O)C3)[C@H](C)[C@H]12 [Doripenem, reference compound]
Recorded Result: 4

Molecule: C[C@H](O/N=C(\C(=O)N[C@@H]1C(=O)N2C(C(=O)[O-])=C(C[n+]3cnc(N)c(NCCNC(=O)c4cc(=O)c(O)cn4O)c3)CSC12)c1nc(N)sc1Cl)C(=O)O (some centres unmarked)
Recorded Result: 3

Molecule: CC(C)(O/N=C(\C(=O)N[C@@H]1C(=O)N2C(C(=O)[O-])=C(/C=C/C[n+]3cnc(N)c(NCCNC(=O)c4cc(=O)c(O)cn4O)c3)CSC12)c1csc(N)n1)C(=O)O (some centres unmarked) [Compound 11]
Recorded Result: 1
